# Test system: MS2 coat protein
# Method Description: apparent KD of MS2 coat protein; designed switch direction (-1 OFF switch, 1 ON switch): 1; higher = weaker reporter binding
# Study Conditions: input ligand: none
Decision: apparent KD of MS2 coat protein >= 300 nM yields TRUE, all other cases yield FALSE.

Query: Threshold query (apparent KD of MS2 coat protein >= 300 nM) on CUUAACAGAGGAGGAUAUGCAGAGGAUCACCCUGUAGAAGGCCACAGAGGAGGAUAUGCAGAGGAUCACCCUGUAGAAGGCCAC [pwkr ssNG DX.8] (Eterna round: R96, puzzle: Same State NG 1)
Response: FALSE

Query: What do you get for UGGCUGGUGCUAGGAUAUCCAUGAGGAAUCCUCGUAGAAGGAGCACGACAUGAGGAUCACCCAUGUAGCCGUCCGUAGACGGCU [salish99_SSNG1_r04_008] (Eterna round: R96, puzzle: Same State NG 1) ?
Response: FALSE

Query: Could you do the same for UUAAUAAUGUAAGGAUAUACAUGAGGAUUUCUCGUAGAAGGUACAGGACAUGAGGAUCACCCAUGUAUCGCUCAGAAGAGCGUA [Mat - Same State NG 1 - JL mod - D24] (Eterna round: R96, puzzle: Same State NG 1) , please?
Response: TRUE

Query: Then this sequence: ACAUGAGGAUCACCCAUGUAACACCUGAAAAUAAAACGAACACAGGAUAUCCCGGCAAGACACCGGGAGAAGGGUGAUCGAAGA [Eresorbe] (Eterna round: R96, puzzle: Same State NG 3)
Response: FALSE

Query: Also CCAACAUACAAUUUAAGAUCACAUGAGGAUCACCCAUGUAUGCAGGAUAUCAGCUCGUGUAGAGCUGAGAAGGGCAAUUUAAUU [SSNG3/1-A4] (Eterna round: R96, puzzle: Same State NG 3) , if possible.
Response: FALSE

Query: Check GAAAAACAUGAGGAUCACCCAUGUGAGAAUAUGGGAGGAUAUACGAGGACGAGAGUCAAGGUAGAAGGCCUAAAAG [Garnet 75] (Eterna round: R96, puzzle: Same State 1) too.
Response: TRUE

Query: Another sequence to check: GUAGCAUACCGAGGAUAUUCAACAUGAGGAUCACCCAUGUGUUUGUUAUAGGCCAAAAGGCCUUGGGAGAAGGCGGAAUGCUAC [Xeonanis - 20 Mod16] (Eterna round: R96, puzzle: Same State NG 2)
Response: FALSE

Query: Now consider GGAAUAUGAUGUUACAUGAGGAUCACCCAUGUAGUGAUAACUAAGGAUAUCUGUUAAGAUAAUUAAGAGAAGGUAGGAUCAUAA [AK SSNG3-V2-8.2] (Eterna round: R96, puzzle: Same State NG 3) .
Response: FALSE

Query: Then AGGCUCAGACGAGGAUAUAUGCGAUCACAUGAGGAUCACCCAUGUCUCGAGCUUCGGCUCGAGGCAUAGAAGGCGUCUGAGCCA [SSNG2/4-A1] (Eterna round: R96, puzzle: Same State NG 2) ?
Response: FALSE

Query: Similarly, AGUCCAGCCUGAGCUGGACAAAGGCAUGUACAUGAGGAUCACCCAUGUCAUGUACAAGCUUUUUGCUCGUCUUAAUA [Zipper 49 - 1] (Eterna round: R96, puzzle: Sensor for hsa-mir-208a) ?
Response: FALSE

Query: Also check AAGGGCGGAAACAACAUGAGGAUCACCCAUGUUGCCGAAAGGCAGGAUAUCCGGCGAAAGCAGAAGGAGAAGGGUCAAGAACCA [AK SSNG3-V2-42.1] (Eterna round: R96, puzzle: Same State NG 3)
Response: FALSE

Query: Try this sequence next: UAACAGUACAAUUUAGAUCUACAUGAGGAUCACCCAUGUACUGAGGAUAUCAGCUCGAAUAGAGCUGAGAAGGCAGAAGAACUA [SSNG3/11-A1] (Eterna round: R96, puzzle: Same State NG 3)
Response: FALSE

Attribution: the supplement of paper PMC9170038
